# System: U2OS
# protocol details: Incucyte cell viability with U2OS; note: unitless GR value; below 1 slowed growth and below 0 cell loss
# Type: toxicity, cell-based
# cond: human, 24 h, 10 µM, compound concentration 10 uM, replicate number 2
Decide using Growth Rate alone. Strictly below 0.8: TRUE. Equal to or above 0.8: FALSE.

CCCCCCC(Sc1nc(Cl)cc(NCc2ccc(-c3ccccc3)cc2)n1)C(=O)O (stereo not given): FALSE
CCNC1=N[C@@H]2[C@@H](O)[C@H](O)[C@@H](CO)O[C@@H]2S1: TRUE
Cc1cc(C)cc(C(=O)NOCCCCCC(=O)NO)c1: TRUE
COc1ccc(-n2nc(C(F)(F)F)cc2-c2ccc(Cl)cc2)cc1: FALSE
